B1: TSN (parent)
chain: FVELQGFLAAEQDIREEIRKVVQS

Variants of: B1
Experiment: protein stability index of a GFP-peptide fusion (GPS, HEK-293T) (PSI 1-6); higher = more stable;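 note: lentivirally expressed fusions sorted by FACS into six bins by GFP to DsRed ratio, PSI derived from sequencing read proportions per bin multiplied by bin number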
Settings: c terminus: a fixed tail appended
# protein stability index listing for each entry below
// no unit string in output, number only

Some variants with known protein stability index results, for comparison:
# variant designation, protein stability index
records = [
    ("G6C", 1.56),
    ("V21W", 2.27),
    ("E3T", 2.59),
    ("F7M", 2.01),
]

Identify protein stability index associated with the variant "V21D"
2.52

Identify protein stability index associated with the variant "L8P"
2.99

Identify protein stability index associated with the variant "K20I"
3.91

Identify protein stability index associated with the variant "D13S"
1.52

Identify protein stability index associated with the variant "V21E"
1.55
